protocol_conditions: in methyl acetate, 293.15 K
assay_endpoint: solubility (mole fraction)

compound	value
CN(CCOc1ccc(CC2SC(=O)NC2=O)cc1)c1ccccn1 (stereo unspecified)	0.00205

====

protocol_conditions: in ethyl acetate, 333.15 K
assay_endpoint: solubility (mole fraction)

molecule	value
CN(CCOc1ccc(CC2SC(=O)NC2=O)cc1)c1ccccn1 (stereo unspecified)	0.0118

====

protocol_conditions: in n-propanol, 313.15 K

compound	solubility (mole fraction)
CN(CCOc1ccc(CC2SC(=O)NC2=O)cc1)c1ccccn1 (stereo unspecified)	0.000741

====

protocol_conditions: in n-butyl acetate, 283.15 K

compound	solubility (mole fraction)
CN(CCOc1ccc(CC2SC(=O)NC2=O)cc1)c1ccccn1 (stereo unspecified)	0.000926
